# System: Escherichia coli TOP10
# ASSAY REMARKS: shrunken log2 fold change of peptide-encoding DNA abundance (4.5 h post-induction vs induction); higher = less antimicrobial activity (less host growth inhibition)
# ASSAY SETUP: time post-induction: 4.5 h; library: site-saturation at positions 5, 18, 19, 20
ENDPOINT: shrunken log2 fold change
Form field (numeric): enter value without unit.

query: What measured shrunken log2 fold change is associated with RRIRSRPPRLPRPRPRPGKIPRP on Escherichia coli TOP10?
result: -0.596

query: What measured shrunken log2 fold change is associated with RRIRVRPPRLPRPRPRPCFWPRP on Escherichia coli TOP10?
result: -0.0218

query: What measured shrunken log2 fold change is associated with RRIRKRPPRLPRPRPRPWPYPRP on Escherichia coli TOP10?
result: -0.146

query: What measured shrunken log2 fold change is associated with RRIRYRPPRLPRPRPRPSLEPRP on Escherichia coli TOP10?
result: -0.0996

query: What measured shrunken log2 fold change is associated with RRIRLRPPRLPRPRPRPPQQPRP on Escherichia coli TOP10?
result: 0.313

query: What measured shrunken log2 fold change is associated with RRIRWRPPRLPRPRPRPLWSPRP on Escherichia coli TOP10?
result: -0.13

query: What measured shrunken log2 fold change is associated with RRIRMRPPRLPRPRPRPPWMPRP on Escherichia coli TOP10?
result: 0.537

---

# Tested on: Escherichia coli TOP10;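 further: peptides expressed intracellularly from a pBAD plasmid library in pooled LB shake-flask culture, induced with 0.3% L-arabinose, DNA abundance read by NGS, three biological replicates, DESeq2 with apeglm shrinkage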
# ASSAY REMARKS: shrunken log2 fold change of peptide-encoding DNA abundance (4.5 h post-induction vs induction); higher = less antimicrobial activity (less host growth inhibition)
# ASSAY SETUP: time post-induction: 4.5 h; library: site-saturation at positions 5, 18, 19, 20
ENDPOINT: shrunken log2 fold change
Form field (numeric): enter value without unit.

query: What value of shrunken log2 fold change has been recorded for this entry: RRIRERPPRLPRPRPRPVDWPRP
result: 0.0136

query: What value of shrunken log2 fold change has been recorded for this entry: RRIRTRPPRLPRPRPRPFPWPRP
result: -0.125

query: What value of shrunken log2 fold change has been recorded for this entry: RRIRERPPRLPRPRPRPYRPPRP
result: -0.41

query: What value of shrunken log2 fold change has been recorded for this entry: RRIRRRPPRLPRPRPRPCNCPRP
result: -0.0759

query: What value of shrunken log2 fold change has been recorded for this entry: RRIRYRPPRLPRPRPRPSFKPRP
result: -0.806

query: What value of shrunken log2 fold change has been recorded for this entry: RRIRFRPPRLPRPRPRPSKYPRP
result: -0.868

query: What value of shrunken log2 fold change has been recorded for this entry: RRIRGRPPRLPRPRPRPIEMPRP
result: 0.0736

query: What value of shrunken log2 fold change has been recorded for this entry: RRIRTRPPRLPRPRPRPARMPRP
result: 0.127

query: What value of shrunken log2 fold change has been recorded for this entry: RRIRMRPPRLPRPRPRPCWFPRP
result: -0.0997

query: What value of shrunken log2 fold change has been recorded for this entry: RRIRVRPPRLPRPRPRPKGHPRP
result: -0.0413

query: What value of shrunken log2 fold change has been recorded for this entry: RRIRTRPPRLPRPRPRPFLPPRP
result: -0.279

query: What value of shrunken log2 fold change has been recorded for this entry: RRIRARPPRLPRPRPRPRSSPRP
result: 0.188

query: What value of shrunken log2 fold change has been recorded for this entry: RRIRWRPPRLPRPRPRPTTSPRP
result: 0.508

query: What value of shrunken log2 fold change has been recorded for this entry: RRIRGRPPRLPRPRPRPQQCPRP
result: 0.13

query: What value of shrunken log2 fold change has been recorded for this entry: RRIRNRPPRLPRPRPRPHTRPRP
result: 0.0907

query: What value of shrunken log2 fold change has been recorded for this entry: RRIRIRPPRLPRPRPRPPHPPRP
result: 0.154

query: What value of shrunken log2 fold change has been recorded for this entry: RRIRDRPPRLPRPRPRPAHQPRP
result: 0.516

query: What value of shrunken log2 fold change has been recorded for this entry: RRIRRRPPRLPRPRPRPVWHPRP
result: 0.278

query: What value of shrunken log2 fold change has been recorded for this entry: RRIRTRPPRLPRPRPRPFEEPRP
result: 0.00896

query: What value of shrunken log2 fold change has been recorded for this entry: RRIRVRPPRLPRPRPRPAKSPRP
result: -0.112

query: What value of shrunken log2 fold change has been recorded for this entry: RRIRTRPPRLPRPRPRPNWRPRP
result: 0.176

query: What value of shrunken log2 fold change has been recorded for this entry: RRIRARPPRLPRPRPRPSCIPRP
result: -0.131

query: What value of shrunken log2 fold change has been recorded for this entry: RRIRWRPPRLPRPRPRPYLFPRP
result: -0.31

Values compiled from the supplement of paper PMC9112550.
